The measurements presented in this section are drawn from ChEMBL document CHEMBL3885861.

We begin with a simple list: items and their reported RBC.
Organism: Rattus norvegicus
assay.details: Open TG-GATES - Regimen: Single
Format: toxicity, organism-based, Sprague-Dawley
Set-up: regimen Single, gender Male, age 6 weeks
condition.notes: in vivo, po, 100 mg/kg, 9 h, tissue Blood, route gavage, dose level Low

{"columns": ["molecule", "output.unit", "RBC"],
 "data": [
  ["NC(N)=Nc1nc(CSCCC(N)=NS(N)(=O)=O)cs1 [FAMOTIDINE]", "x10_4/ul", 606.6],
  ["CCOC(=O)CCC(=O)O[C@H]1[C@H](O[C@@H]2[C@@H](C)[C@H](O[C@H]3C[C@@](C)(OC)[C@@H](O)[C@H](C)O3)[C@@H](C)C(=O)O[C@H](CC)[C@@](C)(O)[C@H](O)[C@@H](C)C(=O)[C@H](C)C[C@@]2(C)O)O[C@H](C)C[C@@H]1N(C)C [ERYTHROMYCIN ETHYLSUCCINATE]", "x10_4/ul", 622],
  ["COc1ccc2[nH]c([S+]([O-])Cc3ncc(C)c(OC)c3C)nc2c1 (centres undefined) [OMEPRAZOLE]", "x10_4/ul", 620.2],
  ["COC1=CC(=O)C[C@@H](C)[C@]12Oc1c(Cl)c(OC)cc(OC)c1C2=O [GRISEOFULVIN]", "x10_4/ul", 617.8]
]}

###

Organism: Rattus norvegicus
assay.details: Open TG-GATES - Regimen: Daily Repeat
Type: toxicity, organism-based, Sprague-Dawley
Design: regimen Daily Repeat, gender Male, age 6 weeks
condition.notes: in vivo, po, 0 mg/kg, […], tissue Plasma, route gavage, dose level Control, time 28 day

{"columns": ["compound", "TBIL [mg/dL]"],
 "data": [
  ["CN(C)CCCN1c2ccccc2CCc2ccccc21", 0.056],
  ["O=C(CCCN1CCC(O)(c2ccc(Cl)cc2)CC1)c1ccc(F)cc1", 0.2],
  ["CCCNC(=O)NS(=O)(=O)c1ccc(Cl)cc1 [CHLORPROPAMIDE]", 0.03],
  ["COc1ccc2[nH]c([S+]([O-])Cc3ncc(C)c(OC)c3C)nc2c1 (stereo not given)", 0.1],
  ["CN1C(=O)CN=C(c2ccccc2)c2cc(Cl)ccc21", 0.2]
]}

###

Species: Rattus norvegicus
assay.details: Open TG-GATES - Regimen: Single
Type: toxicity, organism-based, Sprague-Dawley
Parameters: regimen Single, gender Male, age 6 weeks
condition.notes: in vivo, po, 0 mg/kg, 9 h, tissue Plasma, route gavage, dose level Control
Listed below: LDH values for each entry.

{"columns": ["compound", "output.unit", "LDH"],
 "data": [
  ["CN(C)CCN(Cc1cccs1)c1ccccn1", "IU/L", 171.2],
  ["Cc1ccc(C)c(OCCCC(C)(C)C(=O)O)c1", "IU/L", 58],
  ["NC(N)=Nc1nc(CSCCC(N)=NS(N)(=O)=O)cs1", "IU/L", 138.6],
  ["CC1=C(/C=C/C(C)=C/C=C/C(C)=C/CO)C(C)(C)CCC1", "IU/L", 302],
  ["CN(C)CCCN1c2ccccc2CCc2ccccc21", "IU/L", 59],
  ["COc1cc2c(c(OC)c1OC)-c1ccc(OC)c(=O)cc1[C@@H](NC(C)=O)CC2", "IU/L", 71.2],
  ["COC1=CC(=O)C[C@@H](C)[C@]12Oc1c(Cl)c(OC)cc(OC)c1C2=O", "IU/L", 100.8],
  ["CCOC(=O)CCC(=O)O[C@H]1[C@H](O[C@@H]2[C@@H](C)[C@H](O[C@H]3C[C@@](C)(OC)[C@@H](O)[C@H](C)O3)[C@@H](C)C(=O)O[C@H](CC)[C@@](C)(O)[C@H](O)[C@@H](C)C(=O)[C@H](C)C[C@@]2(C)O)O[C@H](C)C[C@@H]1N(C)C [ERYTHROMYCIN ETHYLSUCCINATE]", "IU/L", 161.4]
]}
